Entry source: patent US20250064941A1

Kd by entry:
- study.target: cynomolgus Siglec-2/CD22 (Macaca fascicularis, UniProt A0A2K5WCZ6)
- Sequence (A0A2K5WCZ6 entry or part of it): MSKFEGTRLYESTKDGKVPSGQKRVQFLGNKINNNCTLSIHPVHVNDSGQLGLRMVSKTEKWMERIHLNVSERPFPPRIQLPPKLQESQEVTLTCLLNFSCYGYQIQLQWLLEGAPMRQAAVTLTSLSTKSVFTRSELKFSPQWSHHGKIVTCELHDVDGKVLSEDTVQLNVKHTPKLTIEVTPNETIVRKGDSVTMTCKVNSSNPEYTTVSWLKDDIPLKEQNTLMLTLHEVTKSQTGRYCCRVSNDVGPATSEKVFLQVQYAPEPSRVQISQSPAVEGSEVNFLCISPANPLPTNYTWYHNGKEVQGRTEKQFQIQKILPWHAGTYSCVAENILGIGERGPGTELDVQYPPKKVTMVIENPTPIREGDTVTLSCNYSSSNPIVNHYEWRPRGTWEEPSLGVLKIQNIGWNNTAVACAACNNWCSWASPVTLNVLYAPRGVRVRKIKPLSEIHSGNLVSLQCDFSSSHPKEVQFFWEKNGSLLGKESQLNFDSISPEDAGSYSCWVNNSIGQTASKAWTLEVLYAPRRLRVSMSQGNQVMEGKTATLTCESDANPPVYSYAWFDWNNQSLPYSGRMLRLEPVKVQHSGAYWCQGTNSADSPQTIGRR
- assay.protocol: biochemical
- measurement.conditions: SPR, steady-state analysis; read-out: Affinity cyno CD22

# annotated cases, reported Kd shown
compound | measured.metric | result
C#CCOCCCCCCO[C@]1(C(=O)O)C[C@H](O)[C@@H](NC(=O)CO)[C@H]([C@H](O)[C@H](O)CNC(=O)Cc2ccc(Cl)cc2)O1 | Kd | < 1000 nM
C#CCCOc1ccc(CO[C@]2(C(=O)O)C[C@H](O)[C@@H](NC(=O)CO)[C@H]([C@H](O)[C@H](O)CNC(=O)Cc3ccc(O)c(Cl)c3)O2)cc1 | Kd | < 1000 nM
CC(=O)NCCOCCOCCOCCOCCNc1c(NCCCCCCO[C@]2(C(=O)O)C[C@H](O)[C@@H](NC(=O)CO)[C@H]([C@H](O)[C@H](O)CNC(=O)Cc3ccc(C(F)F)cc3)O2)c(=O)c1=O | Kd | < 1000 nM
C#CCCOc1ccc(CO[C@]2(C(=O)O)C[C@H](O)[C@@H](NC(=O)CO)[C@H]([C@H](O)[C@H](O)CNC(=O)C(C)(O)c3ccccc3)O2)cc1 (some centres unmarked) | Kd | 1000 to 10000 nM

Challenge: Return reported Kd; argument: C#CCOc1ccccc1-c1cn([C@]2(C(=O)O)C[C@H](O)[C@@H](NC(=O)CO)[C@H]([C@H](O)[C@H](O)CNC(=O)Cc3ccc(-c4ccc(O)cc4)cc3)O2)nn1
Response given: 1000 to 10000 nM
